system: Colon cancer organoid; assay: Targeting of F14 CAF-induced therapy resistance in O23 CRC organoid-stroma co-culture. Cell viability is reported with Gefitinib.; format: functional, Homo sapiens; settings: Homo sapiens, Concentration 10 uM; read-out: Cell Viability
Please note: viability at 10 µM exactly at 50% is 0.0. Only values below 50% get 1.0.

Recorded results for 2 compounds are shown here.
O=C(NCCCN1CCOC1=O)c1cnc(NCc2cc(Br)ccc2Br)nc1NC1CCCC1: 0.0
O=C(NNS(=O)(=O)c1ccccc1)c1cc(-c2ccnnc2)ccc1F: 0.0

A record lists O=C1[C@H](Cc2ccc(O)cc2)N2C(=O)CCN(C(=O)NCc3ccccc3)[C@H]2CN1Cc1cccc2ccccc12 . Is its viability at 10 µM below 50%?
0.0

A record lists COc1ccccc1-c1cc(N2CCN(C(=O)OC(C)(C)C)CC2)c(N)nn1 . Is its viability at 10 µM below 50%?
1.0

A record lists O=C(O)c1cc(-c2ccc(C3CCNCC3)cc2)c2ccc(-c3ccc(C(F)(F)F)cc3)cc2c1 . Is its viability at 10 µM below 50%?
1.0

====

tested on: Colon cancer organoid; test: Targeting of F14 CAF-induced therapy resistance in O14 CRC organoid-stroma co-culture. Cell viability is reported without Gefitinib.; type: functional, Homo sapiens; conditions: Homo sapiens, Concentration 10 uM; read-out: Cell Viability
VALUE_KIND: viability at 10 µM (%)
Unit % implied. Number only.

c1ccc2oc(-c3csc(C4CCN(Cc5nc6ncccc6[nH]5)CC4)n3)cc2c1: 94.5
Cc1c(N2CCNCC2)nc2ccc(Br)cc2c1C(=O)NC[C@H](CCC(=O)O)c1ccccc1Cl [BAY-403]: 85.5
C[C@H](c1ccc(F)cc1)N(Cc1cccc(C(=O)O)c1)C(=O)c1cnc2ccccc2c1 [PF-05105679]: 126
COc1cc(Nc2ncc3c(n2)-c2ccc(Cl)cc2C(c2c(F)cccc2OC)=NC3)ccc1C(=O)O [ALISERTIB]: 16.2
Cc1cc(NC(=O)c2cccc(S(F)(F)(F)(F)F)c2)cc(-n2ccn3nc(-c4cccnc4)cc23)c1 [BAY-309]: 87.3
CC1=C(C#N)C(c2ccc3[nH]nc(C)c3c2)C(C#N)=C(C)N1 [BAY-474]: 90.1
CCN(C(=O)CO)[C@H]1CN(/C(=N\C#N)Nc2cccc(OC(F)F)c2)N=C1c1ccc(Cl)c(Cl)c1: 125
CN(C)[C@@H]1CCN(c2cc(-c3ccccc3)nc3ccnn23)C1 [(R)-ZINC-3573]: 68.2
COc1cc(OC)cc(-c2noc(N3CCN(C)C4(CCN(c5ccccc5)CC4)C3)n2)c1: 114
COc1cc(Nc2nc(C)cc(-c3cnn4nc(OC)ccc34)n2)cc(C(F)(F)F)c1: 115

Please give the documented viability at 10 µM of C[C@H](c1ccc(F)cc1)N(Cc1ccc(Cl)c(C(=O)O)c1)C(=O)c1cnc2ccccc2c1 [PF-05257137]
84

Please give the documented viability at 10 µM of Cc1cc2c(-c3ccco3)cnc(N[C@H]3CCN(C)C[C@@H]3C(=O)NC3CCCCC3)c2[nH]c1=O [GSK791]
111

Please give the documented viability at 10 µM of CC(C)Oc1ccc(-c2c[nH]cc2CN(C)CCN)cc1
25.7

Please give the documented viability at 10 µM of CN1CCN(c2cnc3c(C4CCN(C(=O)c5ccc(OC(F)(F)F)cc5N)CC4)ncnc3c2)CC1 [BAY-885]
114

Please give the documented viability at 10 µM of C[C@@H](NC(=O)Nc1cc2[nH]ncc2c(CO)n1)c1ccccc1 [ERKi]
49.2

====

tested on: Colon cancer organoid; test: Targeting of F14 CAF-induced therapy resistance in O14 CRC organoid-stroma co-culture. Cell viability is reported without Gefitinib.; type: functional, Homo sapiens; details: Homo sapiens, Concentration 10 uM; read-out: Cell Viability
VALUE_KIND: viability at 10 µM (%)
Unit % implied. Number only.

CO[C@H]1CNC[C@@H](OCC2CCC(F)(F)CC2)[C@@H]1Nc1ncc(-c2cncc(C)c2)c2cc(C)c(=O)[nH]c12: 78.7
COc1cccc2c1C(=O)c1c(O)c3c(c(O)c1C2=O)CC(O)(C(=O)CO)CC3OC1CC(N)C(O)C(C)O1 (centres undefined): 1.66
CN(C(=O)c1cnn2cccnc12)c1cc2c(cc1N1CCOCC1)C(=O)N(C[C@@H](F)C(C)(C)O)C2: 139
CO[C@@H](C)c1c(Nc2ccc([C@H](N(C)C(=O)C3CCS(=O)(=O)CC3)C(F)(F)F)cc2)cnc2cc(Cl)nn12 [NVS-MALT1]: 106
CCCOc1ccn2c(C(C)=O)cc(-c3cccc(OC)c3)c2c1: 113

Please give the documented viability at 10 µM of O=C(NCc1ccccc1)c1ccc(S(=O)(=O)NCc2ccccc2)cc1
103

Please give the documented viability at 10 µM of CCNC(=O)c1cc2c(N3CCOCC3C)ccnc2[nH]1 (centres undefined)
130

Please give the documented viability at 10 µM of CN(C)c1ncnc(-c2ccc3nc(Nc4cc(CN5CCN(C(=O)CC(F)(F)F)CC5)ccn4)[nH]c3c2)c1Cl [BAY-440]
114

Please give the documented viability at 10 µM of Clc1cc2c(NC3CCCC3)nnc(-c3ccncc3)c2cc1Cl
91.2

Please give the documented viability at 10 µM of Cn1cc(CCn2cnc(-c3cnn(C)c3)c2-c2ccc(C#N)cc2)cn1
105

Please give the documented viability at 10 µM of Cc1c(NC(=O)COc2ccc(Cl)cc2C(=O)c2cc(F)cc(C(F)(F)F)c2)ccc(C(=O)O)c1F [BI 2540]
124

Please give the documented viability at 10 µM of CC(=O)Nc1c(F)cc(C(=O)N[C@H]2CC[C@H](O)CC2)cc1O[C@@H](C)c1ccccc1 [GSK046]
121

Please give the documented viability at 10 µM of COc1cc2c(cc1OCCCN1CCCC1)N=C(N)C21CCC1
82.9

Please give the documented viability at 10 µM of CC(=O)Nc1nc(CN2CCC[C@H](Cc3cc(C)nc(C)c3)C2)cs1 [JNJ-73924149]
109

====

test system: Colon cancer organoid; assay: Targeting of F14 CAF-induced therapy resistance in O23 CRC organoid-stroma co-culture. Cell viability is reported with Gefitinib.; type: functional, Homo sapiens; conditions: Homo sapiens, Concentration 10 uM; read-out: Cell Viability
Please note: viability at 10 µM exactly at 50% is not met. Only values below 50% get met.

O=C(NCCN1CCOCC1)c1ccc2c(c1)C(=O)c1ccc(Nc3ccc(F)c(NC(=O)c4ccccc4)c3)cc1CC2: met
COc1cc(C(=O)O)ncc1C#Cc1ccccc1NS(=O)(=O)c1cccc2c(N(C)C)ccnc12: met
CNC(=O)c1cc(C(=O)N[C@H]2[C@@H]3COC[C@@H]32)cc2c1O[C@@H](CF)[C@@H]2c1ccccc1: not met
Cn1cnc2c(F)c(Nc3ccc(Br)cc3Cl)c(C(=O)NOCCO)cc21: met
COc1cc(-c2cn([C@H]3CCc4c(F)cccc4N(CC(F)(F)F)C3=O)nn2)ccc1-n1cnc(C)c1: not met

Please examine the following record next.
A record lists C[C@H](NC(=O)c1cnc2n1[C@](C)(Cc1ccc(C#N)cc1)C(=O)N2c1cc(Cl)c(F)c(Cl)c1)C(=O)NC1(c2ccccn2)CC1 . Is its viability at 10 µM below 50%?
not met

====

test system: Colon cancer organoid; experiment: Targeting of F14 CAF-induced therapy resistance in O14 CRC organoid-stroma co-culture. Cell viability is reported with Gefitinib.; format: functional, Homo sapiens; settings: Homo sapiens, Concentration 1 uM; read-out: Cell Viability
Please note: viability at 1 µM exactly at 40% is condition not met. Only values below 40% get condition met.

Recorded results for 5 molecules are shown here.
CNCc1ccccc1-c1csc([C@H](C)Nc2nc(C)nc3cc(OC)c(OC)cc23)c1 [BAY-294]: condition not met
O[C@]1(C(F)(F)F)CCCC[C@H]1Nc1ccc(F)cc1 [BAY-390]: condition met
O=S(=O)(NC1CCC(c2cc(F)ccc2F)(S(=O)(=O)c2ccc(Cl)cc2)CC1)C(F)(F)F (configuration not stated) [MRK-560]: condition met
CCCOc1ccc([C@@H]2[C@@H](C(=O)O)[C@H](c3ccc4c(c3)OCO4)CN2CC(=O)Nc2c(CC)cccc2CC)cc1 [A-1806262]: condition not met
CN(c1ccnc(CNc2nc(Nc3ccc4c(c3)CC(=O)N4)ncc2C(F)(F)F)n1)S(C)(=O)=O [PF-00911705]: condition not met

Please examine the following record next.
A record lists COCCOc1nc(-c2ccc(Cl)nc2)nc2c1CN(C(=O)c1ncn3ccccc13)CC2 [THPP-1] . Is its viability at 1 µM below 40%?
condition met

====

Catalogue of viability at 10 µM values
system: Colon cancer organoid; experiment: Targeting of F14 CAF-induced therapy resistance in O23 CRC organoid-stroma co-culture. Cell viability is reported without Gefitinib.; format: functional, Homo sapiens; settings: Homo sapiens, Concentration 10 uM; read-out: Cell Viability
Unit % implied. Number only.

C[C@H](c1ccc(F)cc1)N(Cc1cccc(C(=O)O)c1)C(=O)c1cnc2ccccc2c1: 104
O=C(NCCCN1CCOC1=O)c1cnc(NCc2cc(Br)ccc2Br)nc1NC1CCCC1: 118
CC(=O)Nc1ncc(CN2CCC[C@H](Cc3cc(C)nc(C)c3)C2)s1: 103
COc1cc(-c2cn(C)c(=O)c3cnccc23)c(OC)cc1CN(C)C: 55.4
COc1ccccc1-c1cc(N2CCN(C(=O)OC(C)(C)C)CC2)c(N)nn1: 49.4
CC[C@H](CC(=O)O)n1c(=O)c2ncccc2n(Cc2cn(C)c3cc(C)cc(C)c23)c1=O: 113
COc1cc(C#N)ccc1S(=O)(=O)Nc1ccc2c(c1)cc(C)c(=O)n2C: 149
CCCc1cc(C)[nH]c(=O)c1CNC(=O)c1cc(-c2ccc(N3CCN(C(C)C)CC3)nc2)cc2c1cnn2C(C)C: 152

Please give the documented viability at 10 µM of C[C@H](NC(=O)Nc1cc2[nH]ncc2c(CO)n1)c1ccccn1
94.9

Please give the documented viability at 10 µM of Cc1c(Oc2ccc(F)cc2)c(OC(C)C)nn1-c1ccc(C2CC2)cn1
147

Please give the documented viability at 10 µM of Cc1cc2c(-c3ccco3)cnc(N[C@H]3CCN(C)C[C@@H]3C(=O)NC3CCCCC3)c2[nH]c1=O
76

Please give the documented viability at 10 µM of CCCCN(Cc1ccccc1)C(=O)c1ccc(S(=O)(=O)Nc2ccccc2)cc1
125
